Ref: the Human Domainome abundance scans (Beltran et al. 2025)

B1: Serine/threonine-protein kinase A-Raf, residues 21 to 89; numbered along this chain, P10398 (parent)
chain: VKVYLPNKQRTVVTVRDGMSVYDSLDKALKVRGLNQDCCVVYRLIKGRKTVTAWDTAIAPLDGEELIVE

Variants of: B1
assay: abundance fitness (aPCA) (normalised: wild type 0, dead -1); higher = more abundant; growth selection in yeast, the domain comes from the species named
assay conditions: Homo sapiens
measured parameter: abundance fitness
Response field accepts a number only; no unit should be typed.

See these solved cases before continuing.
>>> val("I67F")
0.252
>>> val("E69S")
-0.463
>>> val("R48H")
-0.025
>>> val("Q36I")
-0.043
>>> val("Y42I")
-0.844
>>> val("I45W")
-0.1
>>> val("V40A")
-0.021
>>> val("K8Y")
-0.231

// query Kindly indicate its recorded abundance fitness. Item: "R16G"
// result -0.108

// query Kindly indicate its recorded abundance fitness. Item: "A53N"
// result -0.257

// query Kindly indicate its recorded abundance fitness. Item: "T56S"
// result -0.009

// query Kindly indicate its recorded abundance fitness. Item: "V41D"
// result -0.841

// query Kindly indicate its recorded abundance fitness. Item: "C38V"
// result -0.075

// query Kindly indicate its recorded abundance fitness. Item: "L5F"
// result 0.102

// query Kindly indicate its recorded abundance fitness. Item: "T52F"
// result -0.708

// query Kindly indicate its recorded abundance fitness. Item: "I58D"
// result -0.881

// query Kindly indicate its recorded abundance fitness. Item: "G33M"
// result -0.037

// query Kindly indicate its recorded abundance fitness. Item: "C38T"
// result -0.004

// query Kindly indicate its recorded abundance fitness. Item: "V31K"
// result -0.042

// query Kindly indicate its recorded abundance fitness. Item: "P6L"
// result -0.804

// query Kindly indicate its recorded abundance fitness. Item: "V13R"
// result -0.78

// query Kindly indicate its recorded abundance fitness. Item: "E69P"
// result -0.693

// query Kindly indicate its recorded abundance fitness. Item: "E69A"
// result -0.497
